Examples of variants with documented normalized RNA/DNA level without ligand (log10) follow.
B1: library; a variant is named by its letters at N, in order (parent)
chain: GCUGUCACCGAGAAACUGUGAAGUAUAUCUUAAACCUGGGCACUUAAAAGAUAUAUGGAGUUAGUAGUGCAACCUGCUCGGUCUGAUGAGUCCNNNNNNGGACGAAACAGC

variants of: B1; assay: normalized RNA/DNA level without ligand (relative to sTRSVctl = 100) (log10 (% of sTRSVctl)); HEK293T; ligand: cyclic di-GMP (c-di-GMP-II aptamer); higher = less ribozyme self-cleavage, higher mRNA level; details: reporter: mCherry (pCS4076), ligand present: no
Answer with a bare number; do not write a unit.

Worked examples follow.
GCUGUCACCGAGAAACUGUGAAGUAUAUCUUAAACCUGGGCACUUAAAAGAUAUAUGGAGUUAGUAGUGCAACCUGCUCGGUCUGAUGAGUCCAACAUCGGACGAAACAGC [AACAUC]; 1.59
GCUGUCACCGAGAAACUGUGAAGUAUAUCUUAAACCUGGGCACUUAAAAGAUAUAUGGAGUUAGUAGUGCAACCUGCUCGGUCUGAUGAGUCCUAUAUCGGACGAAACAGC [UAUAUC]; 1.71
GCUGUCACCGAGAAACUGUGAAGUAUAUCUUAAACCUGGGCACUUAAAAGAUAUAUGGAGUUAGUAGUGCAACCUGCUCGGUCUGAUGAGUCCACCAGUGGACGAAACAGC [ACCAGU]; 1.6
GCUGUCACCGAGAAACUGUGAAGUAUAUCUUAAACCUGGGCACUUAAAAGAUAUAUGGAGUUAGUAGUGCAACCUGCUCGGUCUGAUGAGUCCAGUGGAGGACGAAACAGC [AGUGGA]; 1.44
GCUGUCACCGAGAAACUGUGAAGUAUAUCUUAAACCUGGGCACUUAAAAGAUAUAUGGAGUUAGUAGUGCAACCUGCUCGGUCUGAUGAGUCCCGCAAGGGACGAAACAGC [CGCAAG]; 1.77
GCUGUCACCGAGAAACUGUGAAGUAUAUCUUAAACCUGGGCACUUAAAAGAUAUAUGGAGUUAGUAGUGCAACCUGCUCGGUCUGAUGAGUCCGUGCUGGGACGAAACAGC [GUGCUG]; 1.75

Entry GCUGUCACCGAGAAACUGUGAAGUAUAUCUUAAACCUGGGCACUUAAAAGAUAUAUGGAGUUAGUAGUGCAACCUGCUCGGUCUGAUGAGUCCUUAAUGGGACGAAACAGC [UUAAUG] , normalized RNA/DNA level without ligand (log10) reported as 1.6

Entry GCUGUCACCGAGAAACUGUGAAGUAUAUCUUAAACCUGGGCACUUAAAAGAUAUAUGGAGUUAGUAGUGCAACCUGCUCGGUCUGAUGAGUCCGGGCACGGACGAAACAGC [GGGCAC] , normalized RNA/DNA level without ligand (log10) reported as 1.78

Entry GCUGUCACCGAGAAACUGUGAAGUAUAUCUUAAACCUGGGCACUUAAAAGAUAUAUGGAGUUAGUAGUGCAACCUGCUCGGUCUGAUGAGUCCUAAAUUGGACGAAACAGC [UAAAUU] , normalized RNA/DNA level without ligand (log10) reported as 1.63

Entry GCUGUCACCGAGAAACUGUGAAGUAUAUCUUAAACCUGGGCACUUAAAAGAUAUAUGGAGUUAGUAGUGCAACCUGCUCGGUCUGAUGAGUCCUGGUAGGGACGAAACAGC [UGGUAG] , normalized RNA/DNA level without ligand (log10) reported as 1.66

Entry GCUGUCACCGAGAAACUGUGAAGUAUAUCUUAAACCUGGGCACUUAAAAGAUAUAUGGAGUUAGUAGUGCAACCUGCUCGGUCUGAUGAGUCCUCUCAUGGACGAAACAGC [UCUCAU] , normalized RNA/DNA level without ligand (log10) reported as 1.64

Entry GCUGUCACCGAGAAACUGUGAAGUAUAUCUUAAACCUGGGCACUUAAAAGAUAUAUGGAGUUAGUAGUGCAACCUGCUCGGUCUGAUGAGUCCUGGCUCGGACGAAACAGC [UGGCUC] , normalized RNA/DNA level without ligand (log10) reported as 1.78

Entry GCUGUCACCGAGAAACUGUGAAGUAUAUCUUAAACCUGGGCACUUAAAAGAUAUAUGGAGUUAGUAGUGCAACCUGCUCGGUCUGAUGAGUCCUUAGUCGGACGAAACAGC [UUAGUC] , normalized RNA/DNA level without ligand (log10) reported as 1.72

Entry GCUGUCACCGAGAAACUGUGAAGUAUAUCUUAAACCUGGGCACUUAAAAGAUAUAUGGAGUUAGUAGUGCAACCUGCUCGGUCUGAUGAGUCCCCCCGCGGACGAAACAGC [CCCCGC] , normalized RNA/DNA level without ligand (log10) reported as 1.77
